Values compiled from patent US20050203007A1.

molecular target: T1, secreted, soluble furin (human, UniProt P09958 108-715, limits assumed); assay: equilibrium enzyme inhibition, fluorogenic substrate
T1 construct: Secreted, soluble construct; also called human furin
T1 sequence (P09958 108-715 limits assumed): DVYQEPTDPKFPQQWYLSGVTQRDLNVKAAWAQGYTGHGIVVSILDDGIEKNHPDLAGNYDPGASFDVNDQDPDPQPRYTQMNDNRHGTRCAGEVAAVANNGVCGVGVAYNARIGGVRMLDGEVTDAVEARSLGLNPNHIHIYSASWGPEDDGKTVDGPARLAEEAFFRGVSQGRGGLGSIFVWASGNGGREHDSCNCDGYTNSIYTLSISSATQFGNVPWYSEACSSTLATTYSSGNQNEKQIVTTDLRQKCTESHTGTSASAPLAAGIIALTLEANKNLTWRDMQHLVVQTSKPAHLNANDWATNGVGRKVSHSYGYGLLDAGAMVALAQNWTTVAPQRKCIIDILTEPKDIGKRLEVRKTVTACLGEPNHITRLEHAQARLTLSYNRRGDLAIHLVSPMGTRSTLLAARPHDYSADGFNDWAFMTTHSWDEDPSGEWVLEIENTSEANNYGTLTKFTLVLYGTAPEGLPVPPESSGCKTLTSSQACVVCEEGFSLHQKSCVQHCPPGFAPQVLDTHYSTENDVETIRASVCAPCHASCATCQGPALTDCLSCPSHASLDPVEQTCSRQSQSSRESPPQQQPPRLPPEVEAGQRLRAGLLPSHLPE
Ki for assorted binders
Report the value in µM with no unit label.

Illustrative cases are given below, each with its answer.
R4-eglin (designed binder, N-terminal Met removed; also called R4L1-eglin) SMGSELKSFPEVVGKTVDQAREYFTLHYPQYDVYFLPEGSRVTLDLRYNRVRVFYNPGTNVVNHVPHVG :: 56
L1-eglin (other, Recombinant eglin with the natural reactive site loop; also called wild type eglin; wild type eglin (Leu45)) SMGSELKSFPEVVGKTVDQAREYFTLHYPQYDVYFLPEGSPVTLDLRYNRVRVFYNPGTNVVNHVPHVG :: 120

# next binder below
Query: Could you tell me which Ki is on file for M4R1-eglin (designed binder, N-terminal Met removed) SMGSELKSFPEVVGKTVDQAREYFTLHYPQYDVYFLPEGSMVTRDLRYNRVRVFYNPGTNVVNHVPHVG ?
Result: 3.6
